Target Or Test System: RLC-depleted porcine cardiac β-myosin (porcine) (UniProt P79293)
Protocol Notes: co-sedimentation
Measurement Name: percent reconstitution (densitometry) (%)
Kindly answer with a numeric value in %, unit omitted.

Examples with answers:
* wild-type human ventricular regulatory light chain, dephosphorylated (mock phosphorylation reaction) (natural protein) MAPKKAKKRAGGANSNVFSMFEQTQIQEFKEAFTIMDQNRDGFIDKNDLRDTFAALGRVNVKNEEIDEMIKEAPGPINFTVFLTMFGEKLKGADPEETILNAFKVFDPEGKGVLKADYVREMLTTQAERFSKEEVDQMFAAFPPDVTGNLDYKNLVHIITHGEEKD | 108
* N47K human ventricular regulatory light chain, phosphorylated by MLCK (natural protein, phosphoserine at 15 (98.4 ± 1.6% phosphorylated)) MAPKKAKKRAGGANSNVFSMFEQTQIQEFKEAFTIMDQNRDGFIDKKDLRDTFAALGRVNVKNEEIDEMIKEAPGPINFTVFLTMFGEKLKGADPEETILNAFKVFDPEGKGVLKADYVREMLTTQAERFSKEEVDQMFAAFPPDVTGNLDYKNLVHIITHGEEKD | 96.2
* N47K human ventricular regulatory light chain, dephosphorylated (mock phosphorylation reaction) (natural protein) MAPKKAKKRAGGANSNVFSMFEQTQIQEFKEAFTIMDQNRDGFIDKKDLRDTFAALGRVNVKNEEIDEMIKEAPGPINFTVFLTMFGEKLKGADPEETILNAFKVFDPEGKGVLKADYVREMLTTQAERFSKEEVDQMFAAFPPDVTGNLDYKNLVHIITHGEEKD | 106
* wild-type human ventricular regulatory light chain, phosphorylated by MLCK (natural protein, phosphoserine at 15 (95.7 ± 3.6% phosphorylated)) MAPKKAKKRAGGANSNVFSMFEQTQIQEFKEAFTIMDQNRDGFIDKNDLRDTFAALGRVNVKNEEIDEMIKEAPGPINFTVFLTMFGEKLKGADPEETILNAFKVFDPEGKGVLKADYVREMLTTQAERFSKEEVDQMFAAFPPDVTGNLDYKNLVHIITHGEEKD | 109
* R58Q human ventricular regulatory light chain, dephosphorylated (mock phosphorylation reaction) (natural protein) MAPKKAKKRAGGANSNVFSMFEQTQIQEFKEAFTIMDQNRDGFIDKNDLRDTFAALGQVNVKNEEIDEMIKEAPGPINFTVFLTMFGEKLKGADPEETILNAFKVFDPEGKGVLKADYVREMLTTQAERFSKEEVDQMFAAFPPDVTGNLDYKNLVHIITHGEEKD | 97.8

Next binder, please.
Entry R58Q human ventricular regulatory light chain, phosphorylated by MLCK (natural protein, phosphoserine at 15 (87.4 ± 0.8% phosphorylated; full phosphorylation never accomplished)) MAPKKAKKRAGGANSNVFSMFEQTQIQEFKEAFTIMDQNRDGFIDKNDLRDTFAALGQVNVKNEEIDEMIKEAPGPINFTVFLTMFGEKLKGADPEETILNAFKVFDPEGKGVLKADYVREMLTTQAERFSKEEVDQMFAAFPPDVTGNLDYKNLVHIITHGEEKD — recorded percent reconstitution (densitometry) = 107

Every entry's value here was drawn from paper PMC4790447.
